targetDesc: human PD-1 / PD-L1-Ig binding on Jurkat cell line over-expressing human PD-1 (Jurkat-PD-1) (Homo sapiens)
Construct: expressed in transfected cells; host or cells: Jurkat
Sequence (Q15116 25-288): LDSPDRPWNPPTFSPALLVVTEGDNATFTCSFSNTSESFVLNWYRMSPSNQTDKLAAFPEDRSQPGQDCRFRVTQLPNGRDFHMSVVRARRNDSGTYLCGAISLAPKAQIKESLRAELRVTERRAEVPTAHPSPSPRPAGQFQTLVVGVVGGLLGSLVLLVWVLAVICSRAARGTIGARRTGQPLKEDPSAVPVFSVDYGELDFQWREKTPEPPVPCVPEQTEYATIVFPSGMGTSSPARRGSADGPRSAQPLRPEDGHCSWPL
assay: Jurkat-PD-1 Cell Binding High-Content Screening Assay (CBA)
Assay type: cell-based
experimentalSetup: Jurkat HPD1_PDL1 IC50, Jurkat-PD-1 cells, PE-labeled PD-L1-Ig 20 nM final
Method: Example 3. Jurkat-PD-1 Cell Binding High-Content Screening Assay (CBA) Jurkat-PD-1 Cell Binding High-Content Screening Assay (CBA). Phycoerythrin (PE) was covalently linked to the Ig epitope tag of human PD-L1-Ig and fluorescently-labeled PD-L1-Ig was used for binding studies with a Jurkat cell line over-expressing human PD-1 (Jurkat-PD-1). Briefly, 8×10^3 Jurkat-hPD-1 cells were seeded into 384 well plates in 20 μl of DMEM supplemented with 10% fetal calf serum. […]
Below, each of the compounds is paired with its reported IC50 value.
resultType: IC50 (nM)

compound="CC[C@H](C)[C@@H]1NC(=O)[C@H](Cc2ccc(-c3ccccc3)cc2)NC(=O)[C@H](C(C)C)NC(=O)[C@H](Cc2c[nH]c3ccccc23)NC(=O)[C@H](CC(=O)O)NC(=O)[C@H](Cc2ccncc2)NC(=O)[C@H](Cc2ccc(OCC(=O)O)cc2)NC(=O)CSC[C@@H](C(=O)N[C@@H](C)C(N)=O)NC(=O)[C@H]([C@@H](C)O)NC(=O)[C@H](C(C)C)NC(=O)[C@H](CC2CCCCC2)NC(=O)[C@H](Cc2c[nH]cn2)NC(=O)[C@@H](CC(C)C)NC(=O)[C@H](CCCN)NC1=O [Compound 1604]" unitsofmeasure=nM quantitativereadout=45.8
compound="CC(C)C[C@H]1NC(=O)[C@H](CCCN)NC(=O)[C@H](CCCNC(N)=O)NC(=O)[C@H](Cc2ccc(-c3ccccc3)cc2)NC(=O)[C@H](C(C)C)NC(=O)[C@H](Cc2c[nH]c3ccccc23)NC(=O)[C@H](CC(=O)O)NC(=O)[C@H](Cc2ccc(C(=O)O)cc2)NC(=O)[C@H](Cc2ccc(OCC(=O)O)cc2)NC(=O)CSC[C@@H](C(=O)N[C@@H](C)C(N)=O)NC(=O)[C@H]([C@@H](C)O)NC(=O)[C@H](C(C)C)NC(=O)[C@H](CC2CCCCC2)NC(=O)[C@H](Cc2c[nH]cn2)NC1=O [Compound 1602]" unitsofmeasure=nM quantitativereadout=23.8
compound="CC[C@H](C)[C@@H]1NC(=O)[C@H](Cc2ccc(-c3ccccc3)cc2)NC(=O)[C@H](C(C)C)NC(=O)[C@H](Cc2cccc(C)c2)NC(=O)[C@H](CC(=O)O)NC(=O)[C@H](Cc2ccc(OCC(=O)O)cc2)NC(=O)[C@H](Cc2ccncc2)NC(=O)CSC[C@@H](C(=O)N[C@@H](C)C(N)=O)NC(=O)[C@H]([C@@H](C)O)NC(=O)[C@H](C(C)C)NC(=O)[C@H](CC(C)C)NC(=O)[C@H](CCN)NC(=O)[C@@H](CC(C)C)NC(=O)[C@H](CCCN)NC1=O [Compound 1186]" unitsofmeasure=nM quantitativereadout=5.8
compound="CC(C)C[C@H]1NC(=O)[C@H](CCCN)NC(=O)[C@H](C(C)C)NC(=O)[C@H](Cc2ccc(-c3ccccc3)cc2)NC(=O)[C@H](C(C)C)NC(=O)[C@H](Cc2c[nH]c3ccccc23)NC(=O)[C@H](CC(=O)O)NC(=O)[C@H](Cc2ccc(OCC(=O)O)cc2)NC(=O)[C@H](Cc2ccc(OCC(=O)O)cc2)NC(=O)CSC[C@@H](C(=O)N[C@@H](C)C(N)=O)NC(=O)[C@H]([C@@H](C)O)NC(=O)[C@H](C(C)C)NC(=O)[C@H](CC2CCCCC2)NC(=O)[C@H](Cc2c[nH]cn2)NC1=O [Compound 1591]" unitsofmeasure=nM quantitativereadout=17.9
